System: ATP;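 note: ATP exposure 15 min at 22 °C before imaging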
experimentDescription: switch fluorescence ratio, 500 uM ATP over buffer (Cy3 cluster intensity, sum of 5 cycles each) (fold (ratio)); higher = stronger signal-on switching upon ATP binding; sequences stand for … in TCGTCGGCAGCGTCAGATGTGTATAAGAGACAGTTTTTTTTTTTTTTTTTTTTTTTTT…TC
recordedConditions: aptamer strand: ATP DNA aptamer (quencher-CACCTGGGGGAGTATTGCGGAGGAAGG + anchor), 100 nM annealed; ATP concentration: 500 uM
Could you please report measured switch fluorescence ratio for the items listed next?

Past entries and their recorded results:
| primarySequence | switch fluorescence ratio |
| --- | --- |
| AATGTTAAAT | 0.979 |
| CCTAATTGAA | 0.973 |
| TTTCAGAAAG | 0.986 |
| ATAGGTATGA | 0.988 |
| CAGGTTAATG | 1 |
| TACGTGGGTA | 1 |
| CGGAAGTCTT | 0.992 |
| TGTTGAAAAG | 0.979 |
| AGAGTAGAGG | 1.01 |
| TATGTCTTAT | 0.983 |

List reported switch fluorescence ratio for each of these sequences:
1. GTGGGGCTTA
2. CTACGATCGA

0.994
1.02

----------
System: ATP;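 note: ATP exposure 15 min at 22 °C before imaging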
experimentDescription: switch fluorescence ratio, 500 uM ATP over buffer (Cy3 cluster intensity, sum of 5 cycles each) (fold (ratio)); higher = stronger signal-on switching upon ATP binding; sequences stand for … in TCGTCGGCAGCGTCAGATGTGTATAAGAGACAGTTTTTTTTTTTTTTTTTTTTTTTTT…TC
recordedConditions: aptamer strand: ATP DNA aptamer (quencher-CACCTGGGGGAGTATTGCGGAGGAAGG + anchor), 100 nM annealed; ATP concentration: 500 uM
Please provide measured switch fluorescence ratio for the entries that follow.
Give bare numbers.

| primarySequence | switch fluorescence ratio |
| --- | --- |
| GGGGGATATT | 1.01 |
| GGGGTACACG | 0.979 |
| ATCTGTCTAT | 0.98 |
| CGGAAGATTA | 0.959 |

Request the reported switch fluorescence ratio associated with "GAAGGAGCAG"
0.944

----------
System: ATP;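 note: ATP exposure 15 min at 22 °C before imaging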
experimentDescription: switch fluorescence ratio, 500 uM ATP over buffer (Cy3 cluster intensity, sum of 5 cycles each) (fold (ratio)); higher = stronger signal-on switching upon ATP binding; sequences stand for … in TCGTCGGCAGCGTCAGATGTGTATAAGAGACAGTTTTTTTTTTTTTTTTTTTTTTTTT…TC
recordedConditions: aptamer strand: ATP DNA aptamer (quencher-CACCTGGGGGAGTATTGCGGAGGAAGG + anchor), 100 nM annealed; ATP concentration: 500 uM
true means recorded switch fluorescence ratio is 1 or above; false means it is below 1.

These solved cases illustrate the format of a correct answer.
| primarySequence | classification |
| --- | --- |
| GTTTTAGCCA | false |
| GAAGGGTACG | true |
| TTTACCCACT | true |

Reported switch fluorescence ratio at or above 1? "TTGAGAGTTT"
true

Quick check: does "TTCACAGCCA" have switch fluorescence ratio greater than or equal to 1?
true

Threshold query (switch fluorescence ratio >= 1) on "TCTGCCTTTT"
true

Record "GCACCGAAAA" ; criterion: switch fluorescence ratio no lower than 1. Met?
true

Does "TGTAGGGGGC" have a reported switch fluorescence ratio of at least 1?
true

Given "AGGGACGTTC" , state whether its switch fluorescence ratio is at least 1.
false

----------
Give measured switch fluorescence ratio for each item. Keep answers brief.
Tested on: ATP;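 note: ATP exposure 15 min at 22 °C before imaging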
experimentDescription: switch fluorescence ratio, 500 uM ATP over buffer (Cy3 cluster intensity, sum of 5 cycles each) (fold (ratio)); higher = stronger signal-on switching upon ATP binding; sequences stand for … in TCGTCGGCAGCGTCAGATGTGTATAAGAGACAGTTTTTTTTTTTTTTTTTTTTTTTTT…TC
recordedConditions: aptamer strand: ATP DNA aptamer (quencher-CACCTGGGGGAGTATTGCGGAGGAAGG + anchor), 100 nM annealed; ATP concentration: 500 uM

Some solved entries appear below for comparison.
| primarySequence | switch fluorescence ratio |
| --- | --- |
| ACTACGTACA | 1.68 |
| AACTCACTTT | 1.09 |
| TAGGAGGGTG | 1.01 |
| AAAAAAAGGT | 1.02 |
| GAGGGGGATT | 0.991 |
| TTAGCGTATG | 1.01 |
| AGTGACACCT | 1.15 |
| CGTATGCCGA | 0.961 |

State the recorded switch fluorescence ratio for every item in the following list.
1. TTTGGTGCTT
2. GGTTGAGGTT
3. AAAAACAGGT
4. GGGCAAGACA
5. CCCGGGGGTT
6. TGGGAAGGCA

0.974
1.04
1.02
1.23
1.14
1

Quick batch: switch fluorescence ratio for everything below.
1. ATTACTTATC
2. TCCGAAAGGG
3. TATATGACTT
4. GATGCTTTTT
5. GCTGGAACTG
6. AAAGTCATGG
7. TATTATTTCA
8. TTGGATCGCA

1: 1.02; 2: 1.05; 3: 1; 4: 1.02; 5: 1.06; 6: 0.948; 7: 0.991; 8: 0.985

----------
Tested on: ATP;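 note: ATP exposure 15 min at 22 °C before imaging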
experimentDescription: switch fluorescence ratio, 500 uM ATP over buffer (Cy3 cluster intensity, sum of 5 cycles each) (fold (ratio)); higher = stronger signal-on switching upon ATP binding; sequences stand for … in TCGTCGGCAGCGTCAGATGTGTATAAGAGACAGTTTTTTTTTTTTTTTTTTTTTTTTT…TC
recordedConditions: aptamer strand: ATP DNA aptamer (quencher-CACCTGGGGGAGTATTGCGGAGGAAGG + anchor), 100 nM annealed; ATP concentration: 500 uM
Assignment: determine reported switch fluorescence ratio for the given sequences.
One number for each entry.

Solved cases (2 shown):
| primarySequence | switch fluorescence ratio |
| --- | --- |
| CAGTTTTCCC | 1.01 |
| TTACTAGTTT | 0.981 |

Record switch fluorescence ratio for all entries; do not skip any.
1. GATCGGGCTG
2. TAGGGGTTAT
3. GGTGGTCGAC

1. 0.903
2. 0.995
3. 1.03

----------
Test system: ATP;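 note: ATP exposure 15 min at 22 °C before imaging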
experimentDescription: switch fluorescence ratio, 500 uM ATP over buffer (Cy3 cluster intensity, sum of 5 cycles each) (fold (ratio)); higher = stronger signal-on switching upon ATP binding; sequences stand for … in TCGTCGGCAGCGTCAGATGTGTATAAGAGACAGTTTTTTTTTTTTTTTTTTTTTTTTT…TC
recordedConditions: aptamer strand: ATP DNA aptamer (quencher-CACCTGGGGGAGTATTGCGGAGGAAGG + anchor), 100 nM annealed; ATP concentration: 500 uM
observationType: switch fluorescence ratio
Numbers only.

// solved cases for switch fluorescence ratio follow
| primarySequence | switch fluorescence ratio |
| --- | --- |
| GGGTTTAGGT | 0.981 |
| AGATGTGGGA | 1 |
| GGCAAATGGG | 1.02 |
| TGTTGGTGGG | 0.989 |
| ACCATCGGGA | 1.01 |
| ATGCTTGATT | 1.02 |
| GGACTAGGAA | 1.01 |
| GTGACAGGTC | 0.974 |

Consider the following items and state reported switch fluorescence ratio for each.
1. TGAGAATTTG
2. GGCGTATATC
3. CTATTGGGTT

1. 0.976
2. 1.02
3. 1.02

Please state, for each entry, its recorded switch fluorescence ratio.
1. TTTTTGTTTG
2. GATGAGAGGG
3. CGTGATTATA
4. GGTAGTTTCA
5. TCGGGCAGTG

[0.985, 1, 0.992, 0.997, 0.99]

Go through the items and report each one's switch fluorescence ratio.
1. GTCAGAGAGT
2. CATTTATGCG

1.02
0.989

----------
For each record, write down the corresponding switch fluorescence ratio.
System: ATP;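 note: ATP exposure 15 min at 22 °C before imaging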
experimentDescription: switch fluorescence ratio, 500 uM ATP over buffer (Cy3 cluster intensity, sum of 5 cycles each) (fold (ratio)); higher = stronger signal-on switching upon ATP binding; sequences stand for … in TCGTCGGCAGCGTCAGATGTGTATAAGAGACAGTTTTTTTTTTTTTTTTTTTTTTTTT…TC
recordedConditions: aptamer strand: ATP DNA aptamer (quencher-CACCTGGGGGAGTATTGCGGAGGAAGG + anchor), 100 nM annealed; ATP concentration: 500 uM
Numbers only.

Please review the entries below; each comes with its answer.
| primarySequence | valueObserved |
| --- | --- |
| AATTGTTGGT | 1.01 |
| CATCGATTGT | 1 |
| CAGGTTTTTT | 0.989 |
| ACTAGGATTC | 0.986 |

Record switch fluorescence ratio per entry; entries follow.
1. GGTCCGATCG
2. GAGGTAAGAT
3. TCAGGCTGGG
4. ACCGCTCAGG
5. TACGGTTTAG
6. AGTAGGAGT

1: 0.969; 2: 1.02; 3: 1.02; 4: 1.02; 5: 1; 6: 0.998

For each of the items listed, what is its switch fluorescence ratio?
1. CGATTTTGAT
2. TAGAGAAAAT
3. GGTTTTGTTT
4. CTAAGTATGG
5. GATGGAAGTT
6. CACGGTGGGT

1: 1.01; 2: 0.964; 3: 1; 4: 0.994; 5: 1; 6: 0.99

The following sequences each have a reported value; give each one's switch fluorescence ratio.
1. TGCTGGGGTC
2. CGTGTTAATT
3. TCTATGACAA
4. GTAAAGTTTT

0.977
0.982
1.01
0.991

Count: 2. Required value per item: switch fluorescence ratio.
1. TTGGTCTGGG
2. CTCATGTTGG

1.01
0.983

# batch size: 3; output switch fluorescence ratio per entry
1. ATTTTTTGGA
2. GTCGTATAGG
3. TACAAGCCTA

[1.01, 0.978, 1.01]

Go through the list and state switch fluorescence ratio for each entry.
1. GTTTATGTTA
2. TTGACAGT
3. CGATTTGGGT

1.02
0.978
1.02
